// data source = PubChem BioAssay AID248

Task for the reader: assign each of the following compounds its reported T/C.
System: L1210 leukemia ip in BDF1 mice, survival T/C
assay_name: NCI In Vivo Anticancer Drug Screen. Data for tumor model L1210 Leukemia (intraperitoneal) in B6D2F1 (BDF1) mice
condition_label: endpoint: mean survival time; dose: 200.0 mg/kg/injection; schedule: Q01DX009 (ip); vehicle: saline; higher = longer survival
Toxic doses and inconclusive results are not listed.

Considering C[N+]1(C2CCC3CCC2C3O)CCOCC1 (stereo not given) , its T/C with L1210 leukemia ip in BDF1 mice, survival T/C was recorded as 98 % of control

Considering O=C(CCl)N1c2ccccc2Oc2cc3ccccc3cc21 , its T/C with L1210 leukemia ip in BDF1 mice, survival T/C was recorded as 90 % of control

Considering ClCCC1CNCCN1 (stereo not given) , its T/C with L1210 leukemia ip in BDF1 mice, survival T/C was recorded as 89 % of control

Considering Cn1ccc(=O)nc1 , its T/C with L1210 leukemia ip in BDF1 mice, survival T/C was recorded as 103 % of control

Considering COC(=O)CC/C(C)=N\NC(=O)c1ccc[n+](C)c1 , its T/C with L1210 leukemia ip in BDF1 mice, survival T/C was recorded as 93 % of control

Considering CCOC(=O)C1CCCNC1 (stereo not given) , its T/C with L1210 leukemia ip in BDF1 mice, survival T/C was recorded as 91 % of control

Considering CNC(=O)c1nc(C)c(C)nc1OCc1ccccc1 , its T/C with L1210 leukemia ip in BDF1 mice, survival T/C was recorded as 92 % of control

Considering COC(=O)CCC#N , its T/C with L1210 leukemia ip in BDF1 mice, survival T/C was recorded as 91 % of control

Considering CCN(CC)CCCC#CCN1CCOCC1 , its T/C with L1210 leukemia ip in BDF1 mice, survival T/C was recorded as 93 % of control

Considering OCCCC1CCCCC1 , its T/C with L1210 leukemia ip in BDF1 mice, survival T/C was recorded as 103 % of control

Considering CNC(=O)N(c1ccccc1)C1CCCCC1 , its T/C with L1210 leukemia ip in BDF1 mice, survival T/C was recorded as 103 % of control

Considering CS(=O)(=O)c1ccc(N)cc1 , its T/C with L1210 leukemia ip in BDF1 mice, survival T/C was recorded as 93 % of control

Considering NNC(=O)CO , its T/C with L1210 leukemia ip in BDF1 mice, survival T/C was recorded as 106 % of control

Considering COCc1ccc(COC)cc1 , its T/C with L1210 leukemia ip in BDF1 mice, survival T/C was recorded as 95 % of control

Considering O=P1(N(CCCl)CCCl)NCCCO1 (stereo not given) , its T/C with L1210 leukemia ip in BDF1 mice, survival T/C was recorded as 93 % of control

Considering C/C(=C/c1ccccc1)S(=O)(=O)c1ccccc1 , its T/C with L1210 leukemia ip in BDF1 mice, survival T/C was recorded as 94 % of control

Considering CCn1c(=O)cn[nH]c1=O , its T/C with L1210 leukemia ip in BDF1 mice, survival T/C was recorded as 94 % of control

Considering CN(C)CCNC(=O)N(C)C , its T/C with L1210 leukemia ip in BDF1 mice, survival T/C was recorded as 98 % of control

Considering COC(=O)C(C)(OC)OC , its T/C with L1210 leukemia ip in BDF1 mice, survival T/C was recorded as 112 % of control

Considering O=C1CC(NCCO)C(=O)NN1 (stereo not given) , its T/C with L1210 leukemia ip in BDF1 mice, survival T/C was recorded as 97 % of control
